- target-entity: T1, mini-vRNAP (N4 virion RNA polymerase central domain) (Bacteriophage N4, UniProt Q859P9 SEQ:38-1143)
- T1 chain: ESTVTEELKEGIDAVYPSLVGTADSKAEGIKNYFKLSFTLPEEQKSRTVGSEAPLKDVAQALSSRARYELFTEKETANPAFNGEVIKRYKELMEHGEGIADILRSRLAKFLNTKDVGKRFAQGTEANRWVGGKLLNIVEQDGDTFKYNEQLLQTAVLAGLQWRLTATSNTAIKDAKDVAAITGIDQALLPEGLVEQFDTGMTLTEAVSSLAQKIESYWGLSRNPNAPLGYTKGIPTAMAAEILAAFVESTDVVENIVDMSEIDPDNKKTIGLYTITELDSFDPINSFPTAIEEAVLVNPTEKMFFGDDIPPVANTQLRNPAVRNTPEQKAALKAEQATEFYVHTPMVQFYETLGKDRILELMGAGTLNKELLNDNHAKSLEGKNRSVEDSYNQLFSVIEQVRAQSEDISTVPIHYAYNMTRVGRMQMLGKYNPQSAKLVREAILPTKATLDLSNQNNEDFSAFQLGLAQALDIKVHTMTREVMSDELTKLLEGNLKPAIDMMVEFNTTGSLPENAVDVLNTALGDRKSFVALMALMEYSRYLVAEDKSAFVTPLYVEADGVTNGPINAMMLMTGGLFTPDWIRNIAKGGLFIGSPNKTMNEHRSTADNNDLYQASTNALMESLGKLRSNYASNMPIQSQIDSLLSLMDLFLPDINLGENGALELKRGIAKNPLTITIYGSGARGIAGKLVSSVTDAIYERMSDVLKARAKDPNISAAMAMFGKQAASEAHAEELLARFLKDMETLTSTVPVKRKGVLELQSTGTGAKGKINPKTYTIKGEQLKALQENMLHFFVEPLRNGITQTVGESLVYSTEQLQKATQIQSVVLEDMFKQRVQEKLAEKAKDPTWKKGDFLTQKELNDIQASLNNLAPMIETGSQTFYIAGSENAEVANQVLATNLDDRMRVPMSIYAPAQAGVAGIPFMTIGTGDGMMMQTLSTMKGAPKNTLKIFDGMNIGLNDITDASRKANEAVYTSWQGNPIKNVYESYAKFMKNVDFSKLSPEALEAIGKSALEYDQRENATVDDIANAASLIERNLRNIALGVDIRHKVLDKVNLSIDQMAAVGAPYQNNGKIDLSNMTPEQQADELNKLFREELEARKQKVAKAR
- procedure-text: filter; stem lengthened by two bp, affinity unchanged
- stated-conditions: tags: N-terminal His6 (pBAD B); TALON and MonoQ; hairpin, 7 bp stem
pKd: −log10 of the molar value.
endpoint-label: pKd

[ask] # pKd lookup, item TCCAAAAGAAGCGGAGCTTCTT (ssDNA, [none]) [P2 stem lengthened to 7 bp]
[reply] ~9.00
